Molecular target: Cholinesterase (Homo sapiens)
Sequence (P06276 whole entry): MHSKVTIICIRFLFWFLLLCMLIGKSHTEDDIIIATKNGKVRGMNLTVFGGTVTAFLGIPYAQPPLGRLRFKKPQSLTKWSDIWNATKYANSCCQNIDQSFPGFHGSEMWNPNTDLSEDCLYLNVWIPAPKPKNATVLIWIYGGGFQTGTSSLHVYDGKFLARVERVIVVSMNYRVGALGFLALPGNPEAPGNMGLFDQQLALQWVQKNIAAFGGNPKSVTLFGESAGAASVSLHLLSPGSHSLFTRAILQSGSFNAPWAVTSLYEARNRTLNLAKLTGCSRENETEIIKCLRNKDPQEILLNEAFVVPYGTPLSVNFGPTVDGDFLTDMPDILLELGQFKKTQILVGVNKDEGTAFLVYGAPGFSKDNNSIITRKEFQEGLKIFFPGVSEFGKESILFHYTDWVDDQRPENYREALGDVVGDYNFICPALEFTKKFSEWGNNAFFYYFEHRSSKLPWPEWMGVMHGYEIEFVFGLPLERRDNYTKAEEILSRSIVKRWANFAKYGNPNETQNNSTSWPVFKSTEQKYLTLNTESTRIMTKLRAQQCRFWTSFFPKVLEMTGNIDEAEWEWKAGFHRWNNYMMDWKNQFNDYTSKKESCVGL
Assay: Inhibition of human recombinant BChE by Ellman's method
Catalogue of compounds with associated pIC50
Entry type: numeric. Quantity: pIC50, the -log10 of concentration in molar units.

- CCN(CCCCCCNC1=CC(=O)C(NCCCCCCNC(=O)CCCCC2CCSS2)=CC1=O)Cc1ccccc1OC (centres undefined): 5.30
- CCN(CCCNC1=CC(=O)C(NCCCNC(=O)CCCCC2CCSS2)=CC1=O)Cc1ccccc1OC (centres undefined): 3.67
- CCN(CCCCCCNC1=CC(=O)C(NCCCNC(=O)CCCCC2CCSS2)=CC1=O)Cc1ccccc1OC (centres undefined): 4.68

For record CCN(CCCNC1=CC(=O)C(NCCCCCCNC(=O)CCCCC2CCSS2)=CC1=O)Cc1ccccc1OC (centres undefined) the listed pIC50 is 4.95

---

Listed compounds paired with reported pIC50
Target: Acetylcholinesterase (Homo sapiens, UniProt P22303)
Sequence (P22303 whole entry): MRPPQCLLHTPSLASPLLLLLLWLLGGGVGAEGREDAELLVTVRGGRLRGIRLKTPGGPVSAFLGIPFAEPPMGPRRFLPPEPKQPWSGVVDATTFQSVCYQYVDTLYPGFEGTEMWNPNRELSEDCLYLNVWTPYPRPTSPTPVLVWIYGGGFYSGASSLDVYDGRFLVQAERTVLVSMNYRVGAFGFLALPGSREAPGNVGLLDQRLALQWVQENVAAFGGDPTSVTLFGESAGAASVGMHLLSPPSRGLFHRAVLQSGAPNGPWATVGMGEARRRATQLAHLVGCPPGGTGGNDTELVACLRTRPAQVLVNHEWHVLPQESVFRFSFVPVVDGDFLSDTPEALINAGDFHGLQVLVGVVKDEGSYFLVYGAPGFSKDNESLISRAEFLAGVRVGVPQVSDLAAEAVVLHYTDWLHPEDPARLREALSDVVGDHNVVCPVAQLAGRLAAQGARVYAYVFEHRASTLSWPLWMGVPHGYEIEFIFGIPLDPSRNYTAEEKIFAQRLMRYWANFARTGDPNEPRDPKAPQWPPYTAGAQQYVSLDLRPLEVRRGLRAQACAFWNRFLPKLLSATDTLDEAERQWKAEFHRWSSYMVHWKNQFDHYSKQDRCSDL
Experiment: Inhibition of human recombinant AChE by Ellman's method
API: returns pIC50 as number; meaning -log10 of concentration in mol/L.

Some solved cases for reference:
* CCN(CCCCCCNC1=CC(=O)C(NCCCNC(=O)CCCCC2CCSS2)=CC1=O)Cc1ccccc1OC (stereo not drawn) | 6.82
* CCN(CCCCCCNC1=CC(=O)C(NCCCCCCNC(=O)CCCCC2CCSS2)=CC1=O)Cc1ccccc1OC (stereo not drawn) | 7.00

Please look at the following compound next.
pIC50 reading for CCN(CCCNC1=CC(=O)C(NCCCCCCNC(=O)CCCCC2CCSS2)=CC1=O)Cc1ccccc1OC (stereo not drawn) : 6.80

---

Test: Inhibition of amyloid beta (1 to 42) self-aggregation assessed as amyloid fibril formation at 10 uM by thioflavin-T based fluorometric assay
result-type: inhibition (%)
The reply should be a number in %, with the unit left off.

# annotated cases, reported inhibition shown
- CCN(CCCNC1=CC(=O)C(NCCCNC(=O)CCCCC2CCSS2)=CC1=O)Cc1ccccc1OC (centres undefined): 19.2
- CCN(CCCCCCNC1=CC(=O)C(NCCCCCCNC(=O)CCCCC2CCSS2)=CC1=O)Cc1ccccc1OC (centres undefined): 45.4

Attention now shifts to the item below.
Lab book: inhibition of CCN(CCCNC1=CC(=O)C(NCCCCCCNC(=O)CCCCC2CCSS2)=CC1=O)Cc1ccccc1OC (centres undefined) noted as 31.8
